Target: human IL-6 (human, UniProt P05231 30-212)
Sequence (P05231 30-212 limits assumed): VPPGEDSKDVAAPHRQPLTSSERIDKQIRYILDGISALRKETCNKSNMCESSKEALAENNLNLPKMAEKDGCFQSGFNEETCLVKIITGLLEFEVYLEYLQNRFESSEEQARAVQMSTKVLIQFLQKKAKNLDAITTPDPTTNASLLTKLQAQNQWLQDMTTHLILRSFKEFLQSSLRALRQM
Test: SPR Biacore, supernatant, Protein A capture, 37 C
Field: Kd. Provide a value for each of the binders that follow.
Respond with the figure and its unit, in that order.

IN: Query (binder): Anti-IL-6 antibody, heavy chain S35H, G66D, L100H / light chain WT (antibody, IgG1, V domains shown, IgG1; variable domains only) VH: EVQLVESGGGLVQPGGSLRLSCAASGFTFSPFAMHWVRQAPGKGLEWVAKISPGGSWTYYSDTVTDRFTFSLDTSKSTAYLQMNSLRAEDTAVYYCARQHWGYYALDIWGQGTLVTVSS VL: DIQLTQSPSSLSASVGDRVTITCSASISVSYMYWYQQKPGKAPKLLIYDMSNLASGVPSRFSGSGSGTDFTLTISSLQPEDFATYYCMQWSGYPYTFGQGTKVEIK ; field requested: Kd
OUT: 0.688 nM

IN: Cool, now Anti-IL-6 antibody, heavy chain S35H, G66D, Q99T / light chain WT (antibody, IgG1, V domains shown, IgG1; variable domains only) VH: EVQLVESGGGLVQPGGSLRLSCAASGFTFSPFAMHWVRQAPGKGLEWVAKISPGGSWTYYSDTVTDRFTFSLDTSKSTAYLQMNSLRAEDTAVYYCARTLWGYYALDIWGQGTLVTVSS VL: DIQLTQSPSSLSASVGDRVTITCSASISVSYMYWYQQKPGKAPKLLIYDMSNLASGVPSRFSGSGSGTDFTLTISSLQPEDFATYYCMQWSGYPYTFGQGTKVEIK
OUT: 1.31 nM

IN: Next entry: Anti-IL-6 antibody, heavy chain S35H, G66D, L100A / light chain M32L, M50D, N52S, M88Q (antibody, IgG1, V domains shown, IgG1; variable domains only; VL is variant III) VH: EVQLVESGGGLVQPGGSLRLSCAASGFTFSPFAMHWVRQAPGKGLEWVAKISPGGSWTYYSDTVTDRFTFSLDTSKSTAYLQMNSLRAEDTAVYYCARQAWGYYALDIWGQGTLVTVSS VL: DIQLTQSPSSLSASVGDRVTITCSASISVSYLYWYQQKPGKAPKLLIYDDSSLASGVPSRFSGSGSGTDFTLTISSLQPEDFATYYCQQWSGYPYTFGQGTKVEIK
OUT: 0.0834 nM
